Assay: Cytotoxicity assay
Type: cell-based
Settings: human, nontransfected 1321N1 astrocytoma cells

{"Compound Structure String": "CC(=NNC(=O)c1ccccc1NS(C)(=O)=O)c1ccc(N)cc1", "cytotoxicity at 24 h, 50 µM": "18.5%"}
{"Compound Structure String": "CC(=NNC(=O)c1ccccc1NS(C)(=O)=O)c1ccccc1F", "cytotoxicity at 24 h, 50 µM": "11.4%"}
{"Compound Structure String": "CC(=NNC(=O)c1ccccc1NS(C)(=O)=O)c1ccc(I)cc1", "cytotoxicity at 24 h, 50 µM": "8.31%"}
{"Compound Structure String": "CC(=NNC(=O)c1ccccc1NS(C)(=O)=O)c1cccs1", "cytotoxicity at 24 h, 50 µM": "11.6%"}
